Source: patent US7074789B2

Heads up, these compounds all have IC50 values measured for FGFR1 (Homo sapiens).

>>> print(df.to_string())
                                   compound  endpoint  experimental_result
0  COc1cc(Nc2ncnc(-n3c(Nc4ccc5[nH]ncc5c4)nc4ccccc43)n2)cc(OC)c1OC      IC50           < 0.785 µM

Exam item: For the record "COc1cc(Nc2ncnc(N(c3ccccc3)c3nc4ccccc4[nH]3)n2)cc(OC)c1OC" , what value of IC50 is listed for FGFR1 (Homo sapiens)?
Marked response: 7.45 to 9.58 µM

Exam item: For the record "COc1cc(Nc2ncnc(-c3ccccc3)n2)cc(OC)c1OC" , what value of IC50 is listed for FGFR1 (Homo sapiens)?
Marked response: > 13.3 µM

Exam item: For the record "CC(=O)NS(=O)(=O)c1ccc(Nc2ncnc(-n3c(N)nc4ccccc43)n2)cc1" , what value of IC50 is listed for FGFR1 (Homo sapiens)?
Marked response: 0.942 to 5.65 µM

Exam item: For the record "COc1cc(Nc2ncnc(Nc3ccc4c(cnn4Cc4ccccc4)c3)n2)cc(OC)c1OCCN1CCOCC1" , what value of IC50 is listed for FGFR1 (Homo sapiens)?
Marked response: 0.687 to 4.12 µM

Exam item: For the record COc1cc(Nc2ncnc(N3c4ccccc4CCC3C)n2)cc(OC)c1OC (centres unmarked) , what value of IC50 is listed for FGFR1 (Homo sapiens)?
Marked response: < 0.982 µM

Exam item: For the record "COc1cc(Nc2ncnc(-n3c(NCc4ccc(C)cc4)nc4ccccc43)n2)cc(OC)c1OC" , what value of IC50 is listed for FGFR1 (Homo sapiens)?
Marked response: < 0.804 µM

Exam item: For the record "CCOc1ccc(Nc2ncnc(Nc3ccc(OCc4ccccc4)cc3)n2)cc1OCC" , what value of IC50 is listed for FGFR1 (Homo sapiens)?
Marked response: > 9.84 µM
